measurementDescription: Single ascending dose and food-effect pharmacokinetics of naringin tablets in healthy humans
Assay type: in vivo, human
setupConditions: female, human, plasma, po, 40 mg, naringin 40 mg p.o. single dose
measure: Tmax (h)

| smilesRepr | measure | valueObserved |
| --- | --- | --- |
| C[C@@H]1O[C@@H](O[C@H]2[C@H](Oc3cc(O)c4c(c3)O[C@H](c3ccc(O)cc3)CC4=O)O[C@H](CO)[C@@H](O)[C@@H]2O)[C@H](O)[C@H](O)[C@H]1O | Tmax | 2.67 |

====

measurementDescription: Single-dose pharmacokinetics in rats (plasma, UHPLC/MS/MS)
Type: in vivo, Sprague Dawley rats
setupConditions: female, Sprague Dawley, rat, plasma, po, 42 mg/kg

| molecule | AUC(0-inf) (ng·h/mL) |
| --- | --- |
| C[C@@H]1O[C@@H](O[C@H]2[C@H](Oc3cc(O)c4c(c3)O[C@H](c3ccc(O)cc3)CC4=O)O[C@H](CO)[C@@H](O)[C@@H]2O)[C@H](O)[C@H](O)[C@H]1O [naringin, Naringin] | 15.3 |

====

measurementDescription: Single-dose pharmacokinetics in dogs (plasma, UHPLC/MS/MS)
Format: in vivo, Beagle dogs
setupConditions: both sexes, beagle, dog, plasma, iv, 12.4 mg/kg

| smilesRepr | AUC(0-t) / ng·h/mL |
| --- | --- |
| C[C@@H]1O[C@@H](O[C@H]2[C@H](Oc3cc(O)c4c(c3)O[C@H](c3ccc(O)cc3)CC4=O)O[C@H](CO)[C@@H](O)[C@@H]2O)[C@H](O)[C@H](O)[C@H]1O | 2920 |

====

measurementDescription: Single-dose pharmacokinetics in rats (plasma, UHPLC/MS/MS)
Format: in vivo, Sprague Dawley rats
setupConditions: both sexes, Sprague Dawley, rat, plasma, po, 10.5 mg/kg; read-out: MRT0-∞

| molecule | MRT inf / h |
| --- | --- |
| C[C@@H]1O[C@@H](O[C@H]2[C@H](Oc3cc(O)c4c(c3)O[C@H](c3ccc(O)cc3)CC4=O)O[C@H](CO)[C@@H](O)[C@@H]2O)[C@H](O)[C@H](O)[C@H]1O [naringin, Naringin] | 1.22 |

====

measurementDescription: Single ascending dose and food-effect pharmacokinetics of naringin tablets in healthy humans
Type: in vivo, human
setupConditions: female, human, plasma, po, 160 mg, naringin 160 mg p.o. single dose

| smilesRepr | valueUnit | half-life |
| --- | --- | --- |
| C[C@@H]1O[C@@H](O[C@H]2[C@H](Oc3cc(O)c4c(c3)O[C@H](c3ccc(O)cc3)CC4=O)O[C@H](CO)[C@@H](O)[C@@H]2O)[C@H](O)[C@H](O)[C@H]1O | h | 4.57 |

====

measurementDescription: Single ascending dose and food-effect pharmacokinetics of naringin tablets in healthy humans
Format: in vivo, human
setupConditions: female, human, plasma, po, 80 mg, naringin 80 mg p.o. single dose

| compound | valueUnit | half-life |
| --- | --- | --- |
| C[C@@H]1O[C@@H](O[C@H]2[C@H](Oc3cc(O)c4c(c3)O[C@H](c3ccc(O)cc3)CC4=O)O[C@H](CO)[C@@H](O)[C@@H]2O)[C@H](O)[C@H](O)[C@H]1O [naringin, Naringin] | h | 1.48 |

====

measurementDescription: Single-dose pharmacokinetics in rats (plasma, UHPLC/MS/MS)
Format: in vivo, Sprague Dawley rats
setupConditions: male, Sprague Dawley, rat, plasma, po, 10.5 mg/kg
From the text: Sixty healthy adult Sprague Dawley rats (180-220 g, half male and female) were purchased from the Guangdong Medical Laboratory Animal Center (Guangzhou, Guangdong, China). Thirty Beagle dogs (10-14 kg, half male and female) were purchased from the […] […] The compounds were detected by multiple reaction monitoring in the negative ion electrospray mode. […] All pharmacokinetic and excretion parameters were expressed as mean ± standard deviation (SD). […]

| compound | Tmax, h |
| --- | --- |
| C[C@@H]1O[C@@H](O[C@H]2[C@H](Oc3cc(O)c4c(c3)O[C@H](c3ccc(O)cc3)CC4=O)O[C@H](CO)[C@@H](O)[C@@H]2O)[C@H](O)[C@H](O)[C@H]1O [naringin, Naringin] | 1.95 |

Source: paper PMC7118210
